Tested on: Rattus norvegicus
Run Description: Antiinflammatory activity in albino rat assessed as inhibition of formalin-induced paw edema at 20 mg/kg, po administered 1 hr prior to formalin challenge measured after 4 hrs by plethysmometric analysis relative to control
Assay type: functional
Assignment: determine reported inhibition in vivo at 20 mg/kg for the given compounds.
One number for each entry, in %.

Some compounds with recorded inhibition in vivo at 20 mg/kg:
{"columns": ["Chem Smiles", "Value Kind", "Experimental Result"],
 "data": [
  ["Cc1ccc(-c2cnc3nc4sc(C)c(C)c4c(=O)n3n2)cc1", "inhibition in vivo at 20 mg/kg", 27],
  ["Cc1sc2nc3ncc(-c4ccc(Br)cc4)nn3c(=O)c2c1C", "inhibition in vivo at 20 mg/kg", 27],
  ["Cc1sc2nc3ncc(-c4ccc(Cl)cc4)nn3c(=O)c2c1C", "inhibition in vivo at 20 mg/kg", 20]
]}

Required: inhibition in vivo at 20 mg/kg, one value per compound below.
1. Cc1sc2nc3[nH]c(=S)[nH]n3c(=O)c2c1C
2. Cc1sc2nc3[nH]c(CC#N)nn3c(=O)c2c1C
3. Cc1sc2nc3[nH]c(Nc4ccc(Cl)cc4)nn3c(=O)c2c1C

1. 27
2. 36
3. 11

###

System: Rattus norvegicus
Run Description: Analgesic activity in albino rat assessed as increase in tail withdrawal latency at 20 mg/kg, po after 2 hrs relative to control
Format: functional
Assignment: determine reported Activity for the given molecules.
Numbers only, in %.

Required: Activity, one value per molecule below.
1. Cc1ccc(Nc2nn3c(=O)c4c(C)c(C)sc4nc3[nH]2)cc1
2. Cc1sc2nc3[nH]c(Nc4ccccc4)nn3c(=O)c2c1C
3. Cc1sc2nc3[nH]c(CC#N)nn3c(=O)c2c1C

[31, 17, 53]

###

Assignment: determine reported inhibition in vivo at 20 mg/kg for the given compounds.
Tested on: Rattus norvegicus
Run Description: Antiinflammatory activity in albino rat assessed as inhibition of formalin-induced paw edema at 20 mg/kg, po administered 1 hr prior to formalin challenge measured after 4 hrs by plethysmometric analysis relative to control
Assay type: functional
Form entry: enter the amount, then its unit.

Some compounds with recorded inhibition in vivo at 20 mg/kg:
{"columns": ["Compound", "inhibition in vivo at 20 mg/kg"],
 "data": [
  ["CCOC(=O)Cc1nn2c(=O)c3c(C)c(C)sc3nc2[nH]1", "56%"],
  ["Cc1ccc(Nc2nn3c(=O)c4c(C)c(C)sc4nc3[nH]2)cc1", "18%"],
  ["Cc1sc2nc3[nH]c(CC(=O)Nc4ccccc4)nn3c(=O)c2c1C", "40%"],
  ["Cc1nn2c(=O)c3c(C)c(C)sc3nc2[nH]1", "52%"],
  ["COc1ccc(NC(=O)Cc2nn3c(=O)c4c(C)c(C)sc4nc3[nH]2)cc1", "43%"]
]}

Required: inhibition in vivo at 20 mg/kg, one value per compound below.
1. Cc1sc2nc3[nH]c(CC(=O)Nc4ccc(Cl)cc4)nn3c(=O)c2c1C
2. O=C([O-])Cc1ccccc1Nc1c(Cl)cccc1Cl.[Na+] [DICLOFENAC SODIUM]
3. Cc1sc2nc3[nH]c(Nc4ccccc4)nn3c(=O)c2c1C
4. Cc1sc2nc3ncc(-c4ccccc4)nn3c(=O)c2c1C

1: 29%; 2: 52%; 3: 25%; 4: 34%

The values you see were collected from ChEMBL document CHEMBL2331427.
